Reported melting point is given for each of the following compounds.
Assay Endpoint: melting point

Compound Structure	Reported Measurement
CCc1nc2c(N)nc3cc(/C=C/C(=O)N(C)C)ccc3c2n1CC1CCOCC1	> 260 °C
CCc1nc2c(N)nc3cc(CCCNC(=O)NC(C)C)ccc3c2n1CC1CCOCC1	213 to 216 °C
CCc1nc2c(N)nc3cc(/C=C/C(=O)OC)ccc3c2n1CC(C)(C)O	238 to 240 °C
CCc1nc2c(N)nc3cc(CCC#N)ccc3c2n1CC1CCOCC1	273 to 275 °C
CC(C)(O)Cn1c(CO)nc2c(N)nc3cc(CCCNS(C)(=O)=O)ccc3c21	202 to 205 °C
CCc1nc2c(N)nc3cc(CCC(=O)N(C)C)ccc3c2n1CC1CCOCC1	219 to 220 °C
CCOC(=O)CCc1ccc2c(c1)nc(N)c1nc(CC)n(CC3CCOCC3)c12	172 to 173 °C
COCc1nc2c(N)nc3cc(CCC(=O)N(C)C)ccc3c2n1CC(C)(C)O	142 to 145 °C
CCOC(=O)/C=C/c1ccc2c(c1)nc(N)c1nc(CC)n(CC3CCOCC3)c12	209 to 210 °C
CCOCc1nc2c(N)nc3cc(CCCO)ccc3c2n1CC(C)(C)O	177 to 178 °C
COC(=O)CCc1ccc2c(c1)nc(N)c1ncn(CC(C)(C)O)c12	201 to 205 °C
COCc1nc2c(N)nc3cc(CCC(=O)N4CCOCC4)ccc3c2n1CC(C)(C)O	215 to 217 °C
CCc1nc2c(N)nc3cc(CCC(N)=O)ccc3c2n1CC1CCOCC1	197 to 199 °C
COCCc1nc2c(N)nc3ccc(CCC(=O)N4CCOCC4)cc3c2n1CCCN1CCCC1=O	168 to 170 °C
CCOCc1nc2c(N)nc3cc(/C=C/C(=O)OC)ccc3c2n1CCCCN1CCCS1(=O)=O	162 to 163 °C
COCCc1nc2c(N)nc3ccc(CCC(=O)N(C)C)cc3c2n1CCCN1CCCC1=O	184 to 186 °C
CCc1nc2c(N)nc3cc(CCCN)ccc3c2n1CC1CCOCC1	217 to 220 °C
CCOCc1nc2c(N)nc3cc(/C=C/S(=O)(=O)c4ccccc4)ccc3c2n1CCCOC(C)C	188.5 to 190 °C
